Numbers sourced from patent US20250034135A1.

// IC50 lookup, one value per entry
target: BCL2 (G101V) (Homo sapiens (Human), UniProt P10415, G101V); assay: Molecular level activity test of anti-apoptotic protein BCL2 (G101V) (HTRF, binding to Bim peptide); conditions: inhibition of BCL2 (G101V) binding to Bim peptide, read-out: BCL-2 (G101V)

Consider COc1ccc(CN2CCN(C3CC4(CCN(c5cc(Oc6cnc7[nH]ccc7c6)c(C(=O)NS(=O)(=O)c6ccc(NCC7(F)CCOCC7)c([N+](=O)[O-])c6)cc5F)CC4)C3)[C@H](c3ccccc3C(C)C)C2)cc1OC . Its measured IC50 is < 10 nM

Consider CC(C)c1ccccc1[C@@H]1CN(Cc2ccc(F)c(F)c2)CCN1C1CC2(CCN(c3cc(Oc4cnc5[nH]ccc5c4)c(C(=O)NS(=O)(=O)c4ccc(NCC5(F)CCOCC5)c([N+](=O)[O-])c4)cc3F)CC2)C1 . Its measured IC50 is < 10 nM

Consider COc1ccc(CN2CCN(C3CC4(CCN(c5cc(Oc6cnc7[nH]cc(F)c7c6)c(C(=O)NS(=O)(=O)c6ccc(NCC7(F)CCOCC7)c([N+](=O)[O-])c6)cc5F)CC4)C3)[C@H](c3ccccc3C(C)C)C2)cc1OC . Its measured IC50 is < 10 nM

Now for another entry.
Consider COc1ccc(CN2CCN(C3CC4(CCN(c5cc(Oc6cnc7[nH]cc(F)c7c6)c(C(=O)NS(=O)(=O)c6ccc(NCC7(F)CCOCC7)c([N+](=O)[O-])c6)cc5F)CC4)C3)[C@H](c3ccccc3C(C)C)C2)cn1 . Its measured IC50 is < 10 nM

====

molecular target: BCL2 (Homo sapiens (Human)); assay: Molecular level activity test of anti-apoptotic protein BCL2 (HTRF, binding to Bim peptide); conditions: HTRF, binding of BCL2 to Bim peptide; read-out: BCL2 nM (inhibitory activity, IC50)
pIC50: −log10 of the molar value.
propertyLabel: pIC50

Consider CC(C)c1ccccc1[C@@H]1CN(Cc2ccc(F)cc2)CCN1C1CC2(CCN(c3ccc(C(=O)NS(=O)(=O)c4cc([N+](=O)[O-])c(NCC5(F)CCOCC5)c5c4OCO5)c(Oc4cnc5[nH]ccc5c4)c3)CC2)C1 . Its measured pIC50 is > 8.00

Now for another entry.
Consider COc1ccc(CN2CCN(C3CC4(CCN(c5cc(Oc6cnc7[nH]ccc7c6)c(C(=O)NS(=O)(=O)c6cc([N+](=O)[O-])c(NCC7(F)CCOCC7)c7scnc67)cn5)CC4)C3)[C@H](c3ccccc3C(C)C)C2)cc1 . Its measured pIC50 is > 8.00

====

assay: Rat absorption test; conditions: Sprague-Dawley, plasma, po, 10 mg/kg
// AUC lookup, one value per entry
The answer should read as a number with its unit following.

Completed entries (count: 2):
Consider COc1ccc(CN2CCN(C3CC4(CCN(c5cc(Oc6cnc7[nH]ccc7c6)c(C(=O)NS(=O)(=O)c6ccc(NC[C@H]7CC[C@](C)(O)CC7)c([N+](=O)[O-])c6)cc5F)CC4)C3)[C@H](c3ccccc3C(C)C)C2)cc1 [compound 234] . Its measured AUC is 5630 ng·h/mL

Consider COc1ccc(CN2CCN(C3CC4(CCN(c5ccc(C(=O)NS(=O)(=O)c6cc([N+](=O)[O-])c(NCC7(F)CCOCC7)c7[nH]cnc67)c(Oc6cnc7[nH]ccc7c6)c5)CC4)C3)[C@H](c3ccccc3C(C)C)C2)cc1 [compound 261] . Its measured AUC is 1210 ng·h/mL

Next:
Consider COc1ccc(CN2CCN(C3CC4(CCN(c5cc(Oc6cnc7[nH]ccc7c6)c(C(=O)NS(=O)(=O)c6ccc(NC[C@H]7CC[C@](C)(O)CC7)c([N+](=O)[O-])c6)cn5)CC4)C3)[C@H](c3ccccc3C(C)C)C2)cc1 [compound 256] . Its measured AUC is 1800 ng·h/mL

====

// IC50 lookup, one value per entry
Molecular target: BCL2 (D103Y) (Homo sapiens (Human), UniProt P10415, D103Y)
Experiment: Molecular level activity test of BCL2 (D103Y) (HTRF, binding to Bim peptide)
Settings: read-out: BCL-2 (D103Y) (nM) (inhibitory activity, IC50)
Description: The detection of the binding ability between anti-apoptotic protein BCL2 (D103Y) and pro-apoptotic protein Bim was performed using Homogeneous Time-Resolved Fluorescence technology. […] After incubating at room temperature for 4 hours, the values were read using the Envision multifunctional microplate reader to detect the effect of the compound to be tested on the binding ability of BCL2 (D103Y) to BIM protein peptides.

Noted IC50 for COc1ccc(CN2CCN(C3CC4(CCN(c5cc(Oc6cnc7[nH]ccc7c6)c(C(=O)NS(=O)(=O)c6cc([N+](=O)[O-])c(NCC7CCOCC7)c7[nH]cnc67)cc5F)CC4)C3)[C@H](c3ccccc3C(C)C)C2)cc1 , tested on BCL2 (D103Y) (Homo sapiens (Human), UniProt P10415, D103Y): < 10 nM

Now for another entry.
Noted IC50 for COc1ccc(CN2CCN(C3CC4(CCN(c5cc(Oc6cnc7[nH]ccc7c6)c(C(=O)NS(=O)(=O)c6ccc(NCC7(F)CCOCC7)c([N+](=O)[O-])c6)cn5)CC4)C3)[C@H](c3ccccc3C(C)C)C2)cc1 , tested on BCL2 (D103Y) (Homo sapiens (Human), UniProt P10415, D103Y): < 10 nM

====

biological target: human CYP3A4 enzyme (Homo sapiens (Human)); assay: CYP3A4 enzyme inhibitory activity (Vivid CYP3A4 Green screening kit); details: read-out: CYP3A4 (IC50); Vivid CYP3A4 Green screening kit
Sequence (P08684 whole entry): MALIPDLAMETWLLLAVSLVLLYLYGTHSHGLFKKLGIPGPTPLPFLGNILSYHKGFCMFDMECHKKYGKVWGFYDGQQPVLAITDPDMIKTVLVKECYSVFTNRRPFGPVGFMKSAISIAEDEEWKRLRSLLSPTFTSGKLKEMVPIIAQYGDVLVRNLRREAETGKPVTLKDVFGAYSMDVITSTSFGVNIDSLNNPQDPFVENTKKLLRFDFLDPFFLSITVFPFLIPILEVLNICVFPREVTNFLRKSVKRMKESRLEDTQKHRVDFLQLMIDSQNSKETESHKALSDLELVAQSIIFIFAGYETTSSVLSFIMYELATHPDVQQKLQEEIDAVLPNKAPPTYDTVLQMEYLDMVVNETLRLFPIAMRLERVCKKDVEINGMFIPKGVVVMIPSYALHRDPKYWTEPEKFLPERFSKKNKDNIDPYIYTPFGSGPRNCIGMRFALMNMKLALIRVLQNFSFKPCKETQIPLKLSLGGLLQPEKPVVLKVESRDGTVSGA
propertyLabel: IC50

Completed entries (count: 3):
Consider COc1ccc(CN2CCN(C3CC4(CCN(c5cc(Oc6cnc7[nH]ccc7c6)c(C(=O)NS(=O)(=O)c6cc([N+](=O)[O-])c(NCC7(F)CCOCC7)c7[nH]cnc67)cc5F)CC4)C3)[C@H](c3ccccc3C(C)C)C2)cc1 . Its measured IC50 is > 20 µM

Consider COc1ccc(CN2CCN(C3CC4(CCN(c5cc(Oc6cnc7[nH]ccc7c6)c(C(=O)NS(=O)(=O)c6ccc(NCC7(F)CCOCC7)c([N+](=O)[O-])c6)cc5F)CC4)C3)[C@H](c3ccccc3C(C)C)C2)cc1OC . Its measured IC50 is > 20 µM

Consider COc1ccc(CN2CCN(C3CC4(CCN(c5cc(Oc6cnc7[nH]ccc7c6)c(C(=O)NS(=O)(=O)c6cc([N+](=O)[O-])c(NC[C@H]7CC[C@](C)(O)CC7)c7[nH]cnc67)cn5)CC4)C3)[C@H](c3ccccc3C(C)C)C2)cc1 . Its measured IC50 is > 20 µM

Now for another entry.
Consider CC(C)c1ccccc1[C@@H]1CN(Cc2cccc(F)c2F)CCN1C1CC2(CCN(c3cc(Oc4cnc5[nH]ccc5c4)c(C(=O)NS(=O)(=O)c4ccc(NCC5(F)CCOCC5)c([N+](=O)[O-])c4)cc3F)CC2)C1 . Its measured IC50 is > 20 µM

====

// pIC50 lookup, one value per entry
target: BCL2 (Homo sapiens (Human)); experiment: Molecular level activity test of anti-apoptotic protein BCL2 (HTRF, binding to Bim peptide); settings: HTRF, binding of BCL2 to Bim peptide; read-out: BCL2 nM (inhibitory activity, IC50)
pIC50: −log10 of the molar value.

Completed entries (count: 6):
Consider CC(C)c1ccccc1[C@@H]1CCCN1C1CC2(CCN(c3cc(Oc4cnc5[nH]ccc5c4)c(C(=O)NS(=O)(=O)c4cc([N+](=O)[O-])c(NC[C@H]5CC[C@](C)(O)CC5)c5ocnc45)cc3F)CC2)C1 . Its measured pIC50 is > 8.00

Consider CC(C)c1ccccc1[C@@H]1CN(Cc2ccc(F)c(F)c2)CCN1C1CC2(CCN(c3ccc(C(=O)NS(=O)(=O)c4cc([N+](=O)[O-])c(NCC5(F)CCOCC5)c5c4OCO5)c(Oc4cnc5[nH]ccc5c4)c3)CC2)C1 . Its measured pIC50 is > 8.00

Consider COc1ccc(CN2CCN(C3CC4(CCN(c5ccc(C(=O)NS(=O)(=O)c6cc([N+](=O)[O-])c(NC[C@H]7CC[C@](C)(O)CC7)c7c6OC(F)(F)O7)c(Oc6cnc7[nH]ccc7c6)c5)CC4)C3)[C@H](c3ccccc3C(C)C)C2)cc1 . Its measured pIC50 is > 8.00

Consider COc1ccc(CN2CCN(C3CC4(CCN(c5cc(Oc6cnc7[nH]ccc7c6)c(C(=O)NS(=O)(=O)c6cc([N+](=O)[O-])c(NCC7CCOCC7)c7[nH]cnc67)cc5F)CC4)C3)[C@H](c3ccccc3C(C)C)C2)cc1 . Its measured pIC50 is > 8.00

Consider COc1ccc(CN2CCN(C3CC4(CCN(c5cc(Oc6cnc7[nH]cc(F)c7c6)c(C(=O)NS(=O)(=O)c6ccc(NC[C@H]7CC[C@](C)(O)CC7)c([N+](=O)[O-])c6)cc5F)CC4)C3)C(c3ccccc3C(C)C)C2)cc1 (stereo partly drawn) . Its measured pIC50 is > 8.00

Consider COc1ccc(CN2CCN(C3CC4(CCN(c5cc(Oc6cnc7[nH]ccc7c6)c(C(=O)NS(=O)(=O)c6ccc(NCC7(F)CCOCC7)c([N+](=O)[O-])c6)cc5F)CC4)C3)[C@H](c3ccccc3C(C)C)C2)cn1 . Its measured pIC50 is > 8.00

Next:
Consider CC(C)c1ccccc1[C@@H]1CCCN1C1CC2(CCN(c3cc(Oc4cnc5[nH]ccc5c4)c(C(=O)NS(=O)(=O)c4cc([N+](=O)[O-])c(NC[C@H]5CC[C@](C)(O)CC5)c5c4OCO5)cc3F)CC2)C1 . Its measured pIC50 is > 8.00

Consider COc1ccc(CN2CCN(C3CC4(CCN(c5cc(Oc6cnc7[nH]ccc7c6)c(C(=O)NS(=O)(=O)c6cc([N+](=O)[O-])c(NCC7CCOCC7)c7c6OCCO7)cc5F)CC4)C3)[C@H](c3ccccc3C(C)C)C2)cc1 . Its measured pIC50 is > 8.00

Consider COc1ccc(CN2CCN(C3CC4(CCN(c5cc(Oc6cnc7[nH]ccc7c6)c(C(=O)NS(=O)(=O)c6cc([N+](=O)[O-])c(NCC7(F)CCOCC7)c7[nH]cnc67)cc5F)CC4)C3)C(c3ccccc3C(C)C)C2)cc1 (stereo not drawn) . Its measured pIC50 is > 8.00
